Test system: Heart
test method notes: Ventricular action potential duration in spontaneously beating Langendorff-perfused guinea pig heart at 1 nM
Format: functional, Cavia porcellus
recorded metric: Activity (ms)
Return type: number; implicit unit ms.

# smiles representation, recorded metric, reported measurement
rows = [
    ("Cc1cccc(C)c1OC[C@@H]1CCCN2CCCC[C@H]12", "Activity", 155),
    ("CC(=O)Nc1ccc(C(=O)NC[C@@H]2CCCN3CCCC[C@H]23)cc1", "Activity", 170),
    ("CCCCc1oc2ccccc2c1C(=O)c1cc(I)c(OCCN(CC)CC)c(I)c1", "Activity", 161),
]

Could you now look at the following compound, please?
Report Activity for Cc1cc(N)cc(C)c1OC[C@@H]1CCCN2CCCC[C@H]12
160

====

Let's look at some molecules and their measured Activity.
System: Heart
test method notes: Intraventricular conduction time in spontaneously beating Langendorff-perfused guinea pig heart at 0.1 uM
Assay type: functional, Cavia porcellus
Just the number in ms, nothing appended.

As a guide, the following entries are already answered.
# smiles representation, recorded metric, reported measurement
records = [
    ("Cc1cccc(C)c1OC[C@@H]1CCCN2CCCC[C@H]12", "Activity", 28),
    ("Cc1cc(N)cc(C)c1OC[C@@H]1CCCN2CCCC[C@H]12", "Activity", 31),
    ("CC(=O)Nc1ccc(C(=O)NC[C@@H]2CCCN3CCCC[C@H]23)cc1", "Activity", 32),
    ("C=C[C@H]1CN2CC[C@H]1C[C@@H]2[C@@H](O)c1ccnc2ccc(OC)cc12", "Activity", 31),
]

Give me measured Activity, please, for this molecule: CCCCc1oc2ccccc2c1C(=O)c1cc(I)c(OCCN(CC)CC)c(I)c1
21

====

Test system: Heart
test method notes: Ventricular action potential duration in spontaneously beating Langendorff-perfused guinea pig heart at 0.1 uM
Assay type: functional, Cavia porcellus
Consider the following molecules and their measured Activity readings.
Hey, just the number and the unit after it is fine.

Known results for molecules:
# smiles representation, tgt, Activity
measured = [
    ("Cc1cc(N)cc(C)c1OC[C@@H]1CCCN2CCCC[C@H]12", "Heart", "182 ms"),
    ("CC(=O)Nc1ccc(C(=O)NC[C@@H]2CCCN3CCCC[C@H]23)cc1", "Heart", "190 ms"),
    ("CCCCc1oc2ccccc2c1C(=O)c1cc(I)c(OCCN(CC)CC)c(I)c1", "Heart", "169 ms"),
]

Specify reported Activity for the molecule shown: C=C[C@H]1CN2CC[C@H]1C[C@@H]2[C@@H](O)c1ccnc2ccc(OC)cc12
182 ms

Quote Activity reported for Cc1cccc(C)c1OC[C@@H]1CCCN2CCCC[C@H]12 please.
170 ms

====

test method notes: Negative chronotropic activity assessed as decrease in atrial rate in isolated guinea pig right atrium at 100 uM relative to control
Type: functional, Cavia porcellus, Cardiac atrium
Parameters: scale not given: the % may be the effect or the level left
Answer Not fulfilled if Activity is under 40%, and Fulfilled if it is 40% or more.

Past entries and their recorded results:
# smiles representation, category
records = [
    ("Cc1cc(N)cc(C)c1OC[C@H]1CCCN2CCCC[C@H]12", "Fulfilled"),
    ("CCCCc1oc2ccccc2c1C(=O)c1cc(I)c(OCCN(CC)CC)c(I)c1", "Fulfilled"),
    ("Cc1cc(N)cc(C)c1OC[C@@H]1CCCN2CCCC[C@H]12", "Not fulfilled"),
    ("Cc1cc(NS(C)(=O)=O)cc(C)c1OC[C@@H]1CCCN2CCCC[C@H]12", "Not fulfilled"),
    ("O=C(NC[C@@H]1CCCN2CCCC[C@H]12)c1ccc([N+](=O)[O-])cc1", "Not fulfilled"),
]

Does the reported Activity for Cc1cc([N+](=O)[O-])cc(C)c1NC(=O)C[C@@H]1CCCN2CCCC[C@H]12 fall at or above the 40% mark?
Not fulfilled

Determine whether this molecule has Activity no lower than 40%: Cc1cc(NS(C)(=O)=O)cc(C)c1OC[C@H]1CCCN2CCCC[C@H]12
Not fulfilled

Please indicate if the recorded Activity for CS(=O)(=O)Nc1ccc(C(=O)NC[C@@H]2CCCN3CCCC[C@H]23)cc1 meets or exceeds 40%.
Not fulfilled
